# TARGET DESC: IGF-1R (Homo sapiens, UniProt P08069)
# Construct: expressed in transfected cells
# Sequence (P08069 31-1367): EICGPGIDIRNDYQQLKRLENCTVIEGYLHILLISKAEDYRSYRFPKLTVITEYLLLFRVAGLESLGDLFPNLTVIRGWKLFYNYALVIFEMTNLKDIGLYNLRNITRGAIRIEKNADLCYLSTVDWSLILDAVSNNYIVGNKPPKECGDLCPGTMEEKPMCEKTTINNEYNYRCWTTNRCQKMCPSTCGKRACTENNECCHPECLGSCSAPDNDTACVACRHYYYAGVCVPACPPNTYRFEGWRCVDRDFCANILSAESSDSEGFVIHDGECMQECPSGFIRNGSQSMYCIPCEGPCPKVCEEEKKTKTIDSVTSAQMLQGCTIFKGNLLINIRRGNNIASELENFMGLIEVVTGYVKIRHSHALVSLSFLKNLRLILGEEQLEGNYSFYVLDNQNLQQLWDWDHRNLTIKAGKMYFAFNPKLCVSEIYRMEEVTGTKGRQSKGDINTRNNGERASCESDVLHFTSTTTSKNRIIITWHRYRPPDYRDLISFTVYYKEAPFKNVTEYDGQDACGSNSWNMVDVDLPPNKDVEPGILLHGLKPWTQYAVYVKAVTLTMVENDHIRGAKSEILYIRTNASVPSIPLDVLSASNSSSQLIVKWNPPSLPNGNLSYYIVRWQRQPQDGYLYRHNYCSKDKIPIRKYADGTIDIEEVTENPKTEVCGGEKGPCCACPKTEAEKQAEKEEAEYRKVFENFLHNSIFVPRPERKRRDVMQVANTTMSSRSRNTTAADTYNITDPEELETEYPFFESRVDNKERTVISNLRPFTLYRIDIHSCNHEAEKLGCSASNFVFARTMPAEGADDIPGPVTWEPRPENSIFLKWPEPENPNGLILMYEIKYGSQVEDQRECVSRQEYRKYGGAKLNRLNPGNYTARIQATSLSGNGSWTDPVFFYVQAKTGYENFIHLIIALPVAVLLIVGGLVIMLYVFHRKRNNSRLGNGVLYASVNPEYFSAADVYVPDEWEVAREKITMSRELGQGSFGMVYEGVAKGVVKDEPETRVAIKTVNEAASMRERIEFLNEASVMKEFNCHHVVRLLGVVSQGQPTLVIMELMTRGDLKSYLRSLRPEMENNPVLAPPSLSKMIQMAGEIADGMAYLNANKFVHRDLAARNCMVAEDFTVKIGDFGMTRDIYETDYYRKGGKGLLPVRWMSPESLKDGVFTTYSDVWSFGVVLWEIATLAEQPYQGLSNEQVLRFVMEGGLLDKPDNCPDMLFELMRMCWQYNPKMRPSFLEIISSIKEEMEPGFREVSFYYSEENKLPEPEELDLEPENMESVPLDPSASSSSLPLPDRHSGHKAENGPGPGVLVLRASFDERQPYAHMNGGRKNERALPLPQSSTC
# ASSAY EXPLANATION: Example B-2: IGF-1R Assay (PathHunter cell lines, EC80 agonist challenge, chemiluminescent detection)
# Assay type: cell-based
# TEST CONTEXT: PathHunter cells, compound 60 minutes at 37° C., EC80 agonist 3 hours; read-out: IC50, Biological Activity against IGF-1R (Table B2)
Reported IC50 values follow for various compounds

Cn1ccnc1CNc1cc(CN2C(=O)N(c3ccc(C4(C(F)(F)F)CC4)cc3)C(=O)C2(C)C)ccn1 [Compound 183]	≤ 500 nM
C[C@@H](Nc1cc(CN2C(=O)N(c3ccc(S(=O)(=O)C(F)(F)F)cc3)C(=O)C2(C)C)ccn1)[C@H]1CCCO1 [Compound 342]	2000 to 10000 nM
CC1(C)CN(S(C)(=O)=O)c2cc(N3C(=O)N(Cc4ccnc5c4CC(=O)N5)C(C)(C)C3=O)ccc21 [Compound 37]	≤ 500 nM

Q. Look at this compound and give its reported IC50. CC(C)(C#N)c1ccc(N2C(=O)N(Cc3ccnc(N[C@H]4CCOC4)c3)C(C)(C)C2=O)cc1 [Compound 152]
A. 500 to 2000 nM

Q. I'd like to know its IC50. The compound in question is C[C@H]1COc2c(CN3C(=O)N(c4ccc(C5(C(F)(F)F)CC5)cc4)C(=O)C3(C)C)ccnc2N1 [Compound 26]
A. ≤ 500 nM

Q. // IC50 lookup, key: CC1(C)C(=O)N(c2ccc(SC(F)(F)F)cc2)C(=O)N1Cc1ccnc2[nH]ccc12 [Compound 1]
A. ≤ 500 nM

Q. Which IC50 is listed for CC1(C)C(=O)N(c2ccc(C(C)(C)C(F)(F)F)cc2)C(=O)N1Cc1ccnc2c1C(F)(F)C(=O)N2 [Compound 49] ?
A. ≤ 500 nM

Q. Fill in the blank: the reported IC50 of CC1(C)C(=O)N(c2ccc3c(c2)N(S(C)(=O)=O)CC32CCC2)C(=O)N1Cc1ccnc(N[C@H]2[C@@H]3COC[C@@H]32)c1 [Compound 216] is ____.
A. ≤ 500 nM
